Reported kon values are given for each entry in this list.
biological target: Clade B BaL gp120 protein (HIV-1 Clade B, BaL); test: BLI (Octet), IgG on anti-hIgG Fc sensor, gp120 analyte, 1:1 fit
Give your result in M⁻¹ s⁻¹ as a bare value.

# binder, kon, M⁻¹ s⁻¹
rows = [
    ("NglycoSA (antibody, V domains shown) VH: ADLVQSGAVVKKPGDSVRISCEAQGYRFPDYIIHWIRRAPGQGPEWMGWMNPMGGQVNIPWKFQGRVSMTRDTSIETAFLDLRGLKSDDTAVYYCVRDRSNGAGKRFESSNWFLDLWGRGTAVTIQS VL: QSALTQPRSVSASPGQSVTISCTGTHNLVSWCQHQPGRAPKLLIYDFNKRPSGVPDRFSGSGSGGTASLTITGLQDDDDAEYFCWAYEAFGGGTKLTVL", 73300),
]

// below: kon requested for another binder
What the record says about Germ12_NglycoSA_CysCA (antibody, V domains shown) VH: QVDLVQSGAVVKKPGDSVRVSCEAQGYRFPDYIIHWIRRAPGQGPEWMGWMNPMGGQVNIPWKFQGRVSMTRDTSIETAYMDLRGLRSDDTAVYYCVRDRSNGAGKRFESSNWFLDLWGRGTLVTVSS VL: QSALTQPRSVSGSPGQSVTISCTGTHNLVSWAQHQPGRAPKLLIYDFNKRPSGVPDRFSGSGSGGTASLTISGLQDEDDAEYFCWAYEAFGGGTKLTVL : kon is 78300
